# key: entry, value: growth inhibition
- assay-notes: NCI Yeast Anticancer Drug Screen. Data for the bub3 strain (AID 167)
- settings: S. cerevisiae bub3 mutant strain, at 50.0 µM, active compounds read high
The panel holds about 79,000 compounds, 15% with a hit somewhere; the sample as a whole holds those more often.
Answer in %, number only, no unit symbol.

# annotated cases, reported growth inhibition shown
C/C(CC1CCCCC1)=N\NC(N)=O :: -10.9
COc1ccc(/C=C/c2nc(=S)[nH][nH]2)cc1OC :: 25.1
O/N=C/c1ncccc1C1OCCO1 :: -6.7
Cc1cn(C2CC(O)C(CO)O2)c(=O)nc1NCc1cccs1 (stereo unspecified) :: -4.55
O=C1CCC(c2nc3ccccc3[nH]2)N1Cc1cccs1 (stereo unspecified) :: -6.85
COc1ccc2[nH]c3c4c(c(C)cc3c2c1)OC(C)(C)C=C4 :: -16.6
CCCCN(CCCC)CCC(O)c1cc(-c2ccc(Cl)c(Cl)c2)nc2c(Cl)cc(Cl)cc12 (stereo unspecified) :: 90.3
CC1CCC(C(C)C)/C(=N\O)C1 (stereo unspecified) :: -6.4
O=C1NC(=S)N/C1=C\c1ccco1 :: 26.5
CCC(C(=O)O)c1ccc(-c2ccccc2)cc1 (stereo unspecified) :: 24.4

For CN(Cc1nc2c(N)nc(N)nc2nc1N)c1ccc(C(=O)NC(CCC(=O)O)C(=O)O)cc1 (stereo unspecified) , write its growth inhibition.
-1.95

For N#Cc1ccc(/C=N\NC(=O)CCSCCC(=O)N/N=C/c2ccc(C#N)cc2)cc1 , write its growth inhibition.
13.1

For CCCCCCCCCCOC(=O)C(C)O (stereo unspecified) , write its growth inhibition.
-16.3

For CCCCCCCCCc1cc(=O)c2ccc(OCc3ccccc3)cc2o1 , write its growth inhibition.
-28.6

For CCc1ccc(NC(=O)c2cc(OC)c(OC)c(OC)c2)cc1 , write its growth inhibition.
17.5

For FC(F)(F)C(F)(F)C(F)(F)c1n[nH]c(C(F)(F)C(F)(F)C(F)(F)F)n1 , write its growth inhibition.
18.5

For O=c1[nH]cnc2c1CNC2 , write its growth inhibition.
-18.4

For ClC(Cl)(Cl)CC(Br)c1ccccc1 (stereo unspecified) , write its growth inhibition.
-6.9

----------
# key: entry, value: growth inhibition
- assay-notes: NCI Yeast Anticancer Drug Screen. Data for the sgs1 mgt1 strain (AID 161);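 further: 0% = growth of cultures given vehicle only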
- settings: S. cerevisiae sgs1 mgt1 strain, at 50.0 µM, active compounds read high
This is part of a sample that, as a whole, favours compounds with a hit. Of some 79,000 tested, about 15% had one in any assay.
Answer in %, number only, no unit symbol.

# annotated cases, reported growth inhibition shown
CCOC(=O)C(=Cn1ccc(=O)[nH]c1=S)C(=O)OCC :: -23.9
CC(=O)OCC1OC(n2cnc3c(N)ncnc32)C2OC(C)(C)OC12 (stereo not given) :: -19.1
O=C(O)C(CO)c1ccccc1 (stereo not given) :: -4.55
S=C1N(c2ccccc2)CCN1c1ccccc1 :: -21.9
COP(=O)(OC)C(NC(=O)C(F)(F)F)(c1ccccc1)C(F)(F)F (stereo not given) :: -37.2

For CN(C)S(=O)(=O)N1CCCc2ccccc21 , write its growth inhibition.
3.55

For CCN(Cc1cc(Nc2ccnc3cc(Cl)ccc23)ccc1O)C(=O)N1CCN(C)CC1 , write its growth inhibition.
20.5

For O=C1Nc2ccccc2CS1 , write its growth inhibition.
-2.1

For Cc1ccc2nc(CC(=O)c3ccc4ccccc4c3)c(=O)[nH]c2c1 , write its growth inhibition.
9.2
